Kindly state IC50 for each of the entries shown.
Assay Method Text: cells
Type: functional
Activity calls are given as the source filed them.

Report IC50 for every entry below.
1. CC12CN3CC(C)(CN(C1)C3c1ccc([N+](=O)[O-])o1)C2 (stereo not given)
2. Cc1cc(O)nc(-n2nc(C)cc2C)n1
3. CC1=NNC(=O)/C1=C\c1cn(-c2ccccc2)nc1-c1cccs1
4. COc1ccccc1/C=N\Nc1cc(C)nc(-n2nc(C)cc2C)n1
5. COc1ccc2cc(C(=O)C3CCCN(Cc4cccc(C)n4)C3)ccc2c1 (stereo not given)

Response line:
["11.1 µM (active)", "3.82 µM (active)", "24.8 µM (active)", "< 0.1 µM (active)", "3 µM (active)"]

* * *

Kindly state AC50 for each of the entries shown.
Target Desc: UniProtKB P11712
Sequence (P11712 whole entry): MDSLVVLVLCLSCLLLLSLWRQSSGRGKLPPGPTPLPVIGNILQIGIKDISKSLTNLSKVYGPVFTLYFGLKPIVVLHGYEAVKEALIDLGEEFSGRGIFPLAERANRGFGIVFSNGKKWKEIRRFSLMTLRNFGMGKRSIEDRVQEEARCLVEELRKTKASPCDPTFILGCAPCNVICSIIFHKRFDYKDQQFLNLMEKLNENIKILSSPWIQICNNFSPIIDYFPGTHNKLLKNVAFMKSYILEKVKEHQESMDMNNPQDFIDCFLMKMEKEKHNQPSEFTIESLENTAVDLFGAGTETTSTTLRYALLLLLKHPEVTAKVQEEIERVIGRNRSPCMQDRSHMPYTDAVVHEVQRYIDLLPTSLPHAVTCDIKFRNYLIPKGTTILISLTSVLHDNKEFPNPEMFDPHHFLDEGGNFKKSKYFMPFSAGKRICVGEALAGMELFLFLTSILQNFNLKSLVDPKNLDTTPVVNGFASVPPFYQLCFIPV

Recorded AC50, per entry:
# Molecule, AC50
measured = [
    ("COc1ccc(-c2nc(NC(=O)c3ccccc3)sc2-c2ccc([N+](=O)[O-])cc2)cc1", "2.82 µM (inconclusive)"),
    ("CC(=O)c1cc(C#N)c(Oc2cccc(C(F)(F)F)c2)nc1C", "25.1 µM (inconclusive)"),
    ("O=C1c2ccccc2CC[C@H]1CNCCc1ccc(O)cc1", "39.8 µM (inconclusive)"),
]

Report AC50 for every entry below.
1. CCOC(=O)C(Sc1ncnc2c1sc1nc(N3CCOCC3)c3c(c12)CCCC3)c1ccccc1 (stereo not given)
2. C[S+]([O-])c1ccccc1-c1nc(-c2cc(C(F)(F)F)cc(C(F)(F)F)c2)no1 (stereo not given)
3. CN(CCc1ccccn1)c1ccc2c(c1)Cc1ccccc1-2
4. Cc1cccc(N2C(=O)NC(=O)/C(=C\c3cnn(-c4ccccc4)c3)C2=O)c1
5. Cc1c(-c2c(C#N)c(N)nc3c2CCCCCC3)cnn1C
6. COC(=O)[C@H]1C[C@@H]1[C@H](NC(=O)c1ccccc1)c1ccccc1
7. CN1CCN(c2ncc3nc(-c4cn(C)c5ccccc45)c(=O)n(CCC#N)c3n2)CC1

Response line:
1: 0.316 µM (inconclusive); 2: 17.8 µM (inconclusive); 3: 7.94 µM (inconclusive); 4: 39.8 µM (inconclusive); 5: 22.4 µM (inconclusive); 6: 39.8 µM (inconclusive); 7: 39.8 µM (inconclusive)

* * *

Target Desc: Cytochrome P450 2C19 (Homo sapiens, UniProt P33261)
Sequence (P33261 whole entry): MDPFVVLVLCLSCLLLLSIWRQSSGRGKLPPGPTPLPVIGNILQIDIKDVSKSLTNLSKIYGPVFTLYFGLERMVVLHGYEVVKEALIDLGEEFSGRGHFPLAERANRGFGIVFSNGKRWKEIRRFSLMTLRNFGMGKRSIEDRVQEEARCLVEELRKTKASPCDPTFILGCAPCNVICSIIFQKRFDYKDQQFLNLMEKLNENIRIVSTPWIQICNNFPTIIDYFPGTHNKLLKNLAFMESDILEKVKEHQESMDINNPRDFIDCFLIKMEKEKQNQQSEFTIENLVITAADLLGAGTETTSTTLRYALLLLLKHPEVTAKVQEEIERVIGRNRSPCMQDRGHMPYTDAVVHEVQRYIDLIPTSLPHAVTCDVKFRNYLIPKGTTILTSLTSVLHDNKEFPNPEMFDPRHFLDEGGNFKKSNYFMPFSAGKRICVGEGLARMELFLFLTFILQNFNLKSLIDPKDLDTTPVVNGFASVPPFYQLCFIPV
Assay Method Text: Cytochrome panel assay with activity outcomes. Panel member name: p450-cyp2c19 Compounds with AC50 equal or less than 10 uM are considered active
Assay type: functional
Run Conditions: read-out: AC50
Readout: AC50

Recorded AC50, per entry:
# Compound, AC50
rows = [
    ("O=C(NCC1CCCO1)C(c1cccnc1)N(C(=O)Cc1cccs1)c1cccnc1 (centres undefined)", "31.6 µM (inconclusive)"),
    ("Cc1cc(/C=C(/C#N)C(=O)Nc2ccccc2)c(C)n1-c1cccnc1", "2 µM (inconclusive)"),
    ("O=C1c2ccccc2CC[C@H]1CNCCc1ccc(O)cc1", "31.6 µM (inconclusive)"),
    ("COc1ccccc1CNc1ncnc2ccc(-c3ccc(C(=O)N(C)C)cc3)cc12", "20 µM (inconclusive)"),
    ("COc1ccc(-c2nc(NC(=O)c3ccccc3)sc2-c2ccc([N+](=O)[O-])cc2)cc1", "1.26 µM (inconclusive)"),
]

Report AC50 for every entry below.
1. C[C@H](CCC(=O)NN)[C@@H]1CC[C@@H]2[C@H]3CC[C@H]4C[C@@H](O)CC[C@@]4(C)[C@@H]3CC[C@]21C
2. Cn1cccc1C(=O)N1CCC2(CCN(Cc3ccc(C#N)cc3)CC2)CC1

Response line:
1: 3.16 µM (inconclusive); 2: 0.2 µM (inconclusive)

Report AC50 for every entry below.
1. CCCNC(=O)OC[C@@H]1O[C@H](CCO/N=C(\C)CCN2CCc3nc(-c4ccccc4)c(-c4ccccc4)cc3C2)C=C[C@@H]1Oc1ccc(OC)cc1
2. N#CCCSC(=S)[C@H]1CCCC1=N

Response line:
["0.316 µM (inconclusive)", "5.01 µM (inconclusive)"]
